experimental-target: UniProtKB Q9NR96
Sequence (Q9NR96 26-1032): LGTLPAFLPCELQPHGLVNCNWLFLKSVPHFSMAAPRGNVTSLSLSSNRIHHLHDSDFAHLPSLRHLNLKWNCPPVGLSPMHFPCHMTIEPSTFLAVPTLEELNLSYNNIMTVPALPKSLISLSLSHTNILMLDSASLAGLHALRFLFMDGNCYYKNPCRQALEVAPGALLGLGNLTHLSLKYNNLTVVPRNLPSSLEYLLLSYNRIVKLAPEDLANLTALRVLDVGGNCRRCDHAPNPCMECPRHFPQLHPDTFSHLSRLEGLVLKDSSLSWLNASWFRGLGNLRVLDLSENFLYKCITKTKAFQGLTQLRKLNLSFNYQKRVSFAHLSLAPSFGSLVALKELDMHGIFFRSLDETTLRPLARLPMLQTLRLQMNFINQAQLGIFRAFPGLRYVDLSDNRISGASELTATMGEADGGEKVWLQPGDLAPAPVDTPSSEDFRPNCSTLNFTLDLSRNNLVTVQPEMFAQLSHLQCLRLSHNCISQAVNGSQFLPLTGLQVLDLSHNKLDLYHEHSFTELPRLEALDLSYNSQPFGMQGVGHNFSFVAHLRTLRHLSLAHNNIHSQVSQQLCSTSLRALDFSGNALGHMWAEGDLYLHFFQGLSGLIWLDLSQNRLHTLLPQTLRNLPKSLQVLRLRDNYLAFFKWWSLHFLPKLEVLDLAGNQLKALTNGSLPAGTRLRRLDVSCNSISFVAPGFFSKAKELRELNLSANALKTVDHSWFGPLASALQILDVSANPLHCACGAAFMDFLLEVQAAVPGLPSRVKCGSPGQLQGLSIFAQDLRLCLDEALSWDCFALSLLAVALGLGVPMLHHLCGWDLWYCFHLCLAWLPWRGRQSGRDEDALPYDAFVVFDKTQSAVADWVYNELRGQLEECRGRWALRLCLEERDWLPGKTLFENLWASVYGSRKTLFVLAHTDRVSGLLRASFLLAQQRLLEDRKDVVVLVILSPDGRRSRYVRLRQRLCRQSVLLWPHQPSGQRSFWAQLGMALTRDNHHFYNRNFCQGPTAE
test-name: TLR9 inhibition reporter assay (HEK-Blue cells, SEAP reporter)
setup-conditions: HEK-Blue cells overexpressing human TLR9; stimulated with ODN2006 5 nM; SEAP after 22 hour incubation
Entries and their log10 IC50 values follow.
Each number you see is log10 of IC50, and the unit inside the log is nM.

Record excerpt, results attached:
>  <molecule>
CC(C)CN1CCN(c2ccc(-c3cnc4cc(-c5ccc(S(C)(=O)=O)cc5)n(C)c4c3)cc2)CC1 [Example 6]

>  <assay-value>
2.14

$$$$
>  <molecule>
Cn1c(-c2ccc(S(C)(=O)=O)cc2)cc2ncc(-c3ccc(CN4CCN(CCC(C)(C)O)CC4)cc3)cc21 [Example 19]

>  <assay-value>
2.82

$$$$

Give me measured log10 IC50, please, for this molecule: CC(C)N1C2CCC1CN(c1ccc(-c3cnc4cc(-c5ccc(S(C)(=O)=O)cc5F)n(C)c4c3)cc1)C2 [Example 43]
2.47

Give me measured log10 IC50, please, for this molecule: CC(C)N1[C@H](C)CN(c2ccc(-c3cnc4cc(-c5ccc(S(C)(=O)=O)cc5)n(C)c4c3)cc2)C[C@H]1C [Example 35]
1.96

Give me measured log10 IC50, please, for this molecule: CC(C)N1CCN(Cc2ccc(-c3cnc4cc(-c5ccc(S(C)(=O)=O)cc5)n(C)c4c3)cc2)CC1 [Example 23]
1.84

Give me measured log10 IC50, please, for this molecule: CN(C)C1CCN(Cc2ccc(-c3cnc4cc(-c5ccc(S(C)(=O)=O)cc5)n(C)c4c3)cc2)CC1 [Example 24]
1.15
